- method: NCI Yeast Anticancer Drug Screen. Data for the bub3 strain (AID 167)
- condition label: S. cerevisiae bub3 mutant strain, at 50.0 µM, active compounds read high
Compounds without any hit were thinned out: in the full panel of roughly 79,000, 15% have a hit.
measurement name: growth inhibition (%)
One number for each entry, in %.

Hello, I would appreciate it if you could give growth inhibition for each entry below.
1. CC12CC3C(CC1SCC(=O)O2)C3(C)C (configuration not stated)
2. COC(=O)c1nc(N)nc(C(=O)OC)c1C(=O)c1cccnc1
3. CCN(CC)c1ccccc1-c1ccccc1
4. CCOC(=O)NC1C2CC3C(C2)C31 (configuration not stated)
5. O=C1CC2CC(=O)C(S(=O)c3ccccc3)C2C1 (configuration not stated)
6. CCOC(=O)c1[nH]c(CC(=O)O)c(C(=O)OC)c1C
7. O=c1[nH]cnc2c1nnn2CCCCCCCCCCCCn1nnc2c(=O)[nH]cnc21
8. O=c1cc(-c2ccccc2)nc(Sc2ccc([N+](=O)[O-])cc2[N+](=O)[O-])[nH]1

Resp:
1. -25.1
2. -4.7
3. 6.05
4. -52.4
5. -1.6
6. 26.5
7. 12.7
8. 2.65

Hello, I would appreciate it if you could give growth inhibition for each entry below.
1. CCOP(=O)(OCC)/C(C#N)=C\c1ccc(N(C)C)cc1
2. COc1ccc2c(c1)N(CC(C)CN(C)C)c1ccccc1S2 (configuration not stated)
3. Cc1cc(O[Si](C)(C)C)nc(O[Si](C)(C)C)n1
4. Cc1ccccc1-c1nc2c([nH]1)c(=O)n(C)c(=O)n2C
5. COc1cccc(OC)c1C

Resp:
[6.35, 39.5, -40.3, 0.25, -4.25]

---

- method: NCI Yeast Anticancer Drug Screen. Data for the sgs1 mgt1 strain (AID 161);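 further: 0% = growth of cultures given vehicle only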
- condition label: S. cerevisiae sgs1 mgt1 strain, at 50.0 µM, active compounds read high
About 79,000 compounds went through this panel and 15% of them were active in at least one assay; those are over-represented in the sample as a whole.
measurement name: growth inhibition (%)
Answers are plain numbers, in %.

Please review the entries below; each comes with its answer.
1) O=C(O)C1CSC(c2cccs2)N1 (configuration not stated)	-4.4
2) CCOC(=O)C1C(C)=CC(=O)CC1C(C)C (configuration not stated)	5.7
3) CN(N)C(=O)Nc1ccc([N+](=O)[O-])cc1	-2.7
4) COc1cc2c(cc1OC)C(CC(=O)NN=C(C)C)NCC2 (configuration not stated)	-10.2
5) COc1c2cc3c(cc2nc2occc12)OCO3	-9.3
6) CCNC(=O)C(C(=O)O)c1ccccc1 (configuration not stated)	5.15

Shift focus to the following entry.
The compound identified as O=C(CCCCC(=O)N1CCOCC1)N1CCOCC1 registered its growth inhibition at -2.45

---

- method: NCI Yeast Anticancer Drug Screen. Data for the mlh1 rad18 strain (AID 175)
- condition label: S. cerevisiae mlh1 rad18 strain growth inhibition; at 50.0 µM; active compounds read high
Compounds without any hit were thinned out: in the full panel of roughly 79,000, 15% have a hit. The source made the active and inactive calls. Cut-off read from the data, not from the text of the source: active = growth inhibition above about 70%; inactive = the rest.
measurement name: growth inhibition

1) COC(=O)C1(C)CCCC2(C)C3CC4OC4(C(C)C)CC3(O)CCC12 (configuration not stated)	42.1% (inactive)
2) O=S(=O)(/C=C/c1ccc(F)cc1)Cc1ccccc1	11.7% (inactive)
3) COc1ccc2c(c1)Cc1cc(N=[N+]([O-])c3ccc4c(c3)Cc3cc(OC)ccc3-4)ccc1-2	9.85% (inactive)

Hello, I would appreciate it if you could give growth inhibition for each entry below.
1. CCOc1ccc(/C(O)=C/c2nc3ccccc3nc2/C=C(\O)c2ccc(OCC)cc2)cc1
2. CCCCC(=O)NCCNC(=O)CCCC

Resp:
13.6% (inactive)
9.55% (inactive)

---

Task for the reader: assign each of the following compounds its reported growth inhibition.
- method: NCI Yeast Anticancer Drug Screen. Data for the mec2-1 strain (AID 157)
- condition label: S. cerevisiae mec2-1 strain, at 50.0 µM, active compounds read high
Compounds without any hit were thinned out: in the full panel of roughly 79,000, 15% have a hit.
Answers are plain numbers, in %.

Please review the entries below; each comes with its answer.
1) C/C=C/C1N(C)CCCN1C	-7.55
2) O=C(CCCCC(=O)Nc1ccc2[nH]c3ccccc3c(=O)c2c1)Nc1ccc2[nH]c3ccccc3c(=O)c2c1	0.25
3) CCN(CCO)CC(=O)c1ccc(Cl)c(Cl)c1	-12.5

Hello, I would appreciate it if you could give growth inhibition for each entry below.
1. [Cl][Bi]([O]c1ccccn1)[O]c1ccccn1
2. COc1ccc(C(=O)NC(=S)Nc2cccc([N+](=O)[O-])c2)cc1
3. O=C(Nc1cccc(O)c1)OC1CCCCC1

Resp:
-1.55
29.9
6.05

---

- method: NCI Yeast Anticancer Drug Screen. Data for the sgs1 mgt1 strain (AID 161);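 further: 0% = growth of cultures given vehicle only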
- condition label: S. cerevisiae sgs1 mgt1 strain, at 50.0 µM, active compounds read high
About 79,000 compounds went through this panel and 15% of them were active in at least one assay; those are over-represented in the sample as a whole.
measurement name: growth inhibition (%)
Give bare numbers, in %.

Please review the entries below; each comes with its answer.
1. c1cncc(CSc2ncnc3nc[nH]c23)c1	-20.1
2. CS(=O)(=O)Oc1ncc(Cl)cc1Cl	-1.85

Hello, I would appreciate it if you could give growth inhibition for each entry below.
1. O=C(O)C(CS)NC1CC(=O)N(Cc2ccccc2)C1=O (stereo not drawn)
2. CN(C)c1nc2nccnc2c(=O)[nH]1
3. COc1ccc(C2=C(Cl)c3cc(OC)c(OC)cc3C2Cl)cc1OC (stereo not drawn)
4. N#Cc1cccc(NC(=O)c2ccc(C(=O)O)c(C(=O)c3ccc(C(=O)O)c(C(=O)Nc4cccc(C#N)c4)c3)c2)c1
5. CCCCOC(=O)C1(C(=O)OCCCC)CC1
6. O=[N+]([O-])c1ccc(N=Nc2ccc(N(CCO)CCO)cc2)cc1
7. N=c1nc2n(cc1F)C1OC(CO)C(O)C1O2 (stereo not drawn)

Resp:
[18.6, -11.2, 21.9, -19, 1.3, 24, 15.3]

---

- method: NCI Yeast Anticancer Drug Screen. Data for the mec2-1 strain (AID 157)
- condition label: S. cerevisiae mec2-1 strain, at 50.0 µM, active compounds read high
Compounds without any hit were thinned out: in the full panel of roughly 79,000, 15% have a hit.
measurement name: growth inhibition (%)
Numbers only, in %.

Please review the entries below; each comes with its answer.
1) O=C(Cn1nnc(N2CCCCC2)n1)N/N=C/c1ccccc1O	-42
2) CC1CC([NH-])C([NH-])C(C)(C)C1.[Cl][Pt+2][Cl] (stereo unspecified)	-4.25
3) [O-][n+]1ccccc1Cl	9.9
4) CC(=O)OCC1OC(n2ccc(NC(=O)Nc3ccn(C4OC(COC(C)=O)C(OC(C)=O)C4OC(C)=O)c(=O)n3)nc2=O)C(OC(C)=O)C1OC(C)=O (stereo unspecified)	-11.1
5) O=c1oc2c(-c3c(O)c(=O)oc4ccccc34)cc(O)cc2s1	14.6

Hello, I would appreciate it if you could give growth inhibition for each entry below.
1. COc1ccc(OC)c(C2=CCCCCC2)c1
2. N#CC1(C#N)CC1(C#N)C#N
3. CCC1(COC(NC(=O)c2ccccc2)(C(F)(F)F)C(F)(F)F)COC1

Resp:
1. -6.15
2. 16.4
3. -1.9

---

Task for the reader: assign each of the following molecules its reported growth inhibition.
- method: NCI Yeast Anticancer Drug Screen. Data for the cln2 rad14 strain (AID 165);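 further: 0% = growth equal to vehicle treated cultures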
- condition label: S. cerevisiae cln2 rad14 strain, at 50.0 µM, active compounds read high
The panel holds about 79,000 compounds, 15% with a hit somewhere; the sample as a whole holds those more often. Where a SMILES comes first, the peptide text is derived from it. The star is where a group is joined. For = O=C*
One number for each entry, in %.

Please review the entries below; each comes with its answer.
1) c1ccc2c(c1)Cc1c-2n[nH]c1-c1[nH]nc2c1Cc1ccccc1-2	22.3
2) CN1CCC(CC(O)(c2ccccc2)C2CCCCC2)C1 (stereo not drawn)	-24.4
3) CSC1=NC=C(C#N)C2=NC(c3ccccc3)NN12 (stereo not drawn)	-14.2
4) O=S(=O)(Oc1ccc(-c2ccccc2)cc1Br)c1ccccc1	8.3

Hello, I would appreciate it if you could give growth inhibition for each entry below.
1. CC(=O)Nc1c(OC(C)=O)ccc2cc(Br)ccc12
2. COc1ccc(O)c(/C=N\N=C\c2cc(OC)ccc2O)c1
3. CSCCC(NC(=O)C(Cc1ccccc1)NC=O)C(=O)O (stereo not drawn) (For-Phe-Met-OH; configuration not given here)

Resp:
[-15.2, -22.5, 5.7]

---

- method: NCI Yeast Anticancer Drug Screen. Data for the mlh1 rad18 strain (AID 175)
- condition label: S. cerevisiae mlh1 rad18 strain growth inhibition; at 50.0 µM; active compounds read high
Compounds without any hit were thinned out: in the full panel of roughly 79,000, 15% have a hit.
measurement name: growth inhibition (%)
Numbers only, in %.

Please review the entries below; each comes with its answer.
1) COC(=O)C1C2CC3C(C2=O)C31 (stereo unspecified)	6.85
2) O=C(N/N=C/c1ccc(Cl)cc1Cl)C(O)(c1ccccc1)c1ccccc1	19.3
3) Nc1c(Br)cc(Br)cc1-c1cc(Br)cc(Br)c1N	24.4

Hello, I would appreciate it if you could give growth inhibition for each entry below.
1. CC(C)(C#N)CCCCC(C)(C)C#N
2. Cc1cc(C)c(C(=O)/C=C(\N)C(=O)c2c(C)cc(C)cc2C)c(C)c1
3. O=C(Cl)c1cc(I)c(I)c(I)c1

Resp:
[3.8, 4.75, 40]

Sourced from PubChem BioAssay (NCI)
